Source: patent US5627270A

Documented % Decrease in Fluorescence across a set of molecules
Procedure text: ASSAY II: proton transport across lipid membranes
Assay type: biochemical
Assay context: 0.00579 mM final concentration
Lab note: write values as number then unit, every time.

- C[C@H](CCC(=O)O)[C@H]1CC[C@H]2[C@@H]3[C@H](O[C@H]4O[C@H](CO)[C@@H](O)[C@H](O)[C@H]4O)C[C@@H]4C[C@H](O)CC[C@]4(C)[C@H]3C[C@H](O[C@H]3O[C@H](CO)[C@@H](O)[C@H](O)[C@H]3O)[C@]12C: 21.0%
- COC(=O)CC[C@@H](C)[C@H]1CC[C@H]2[C@@H]3[C@H](O[C@H]4O[C@H](CO)[C@@H](O)[C@H](O)[C@H]4O)C[C@@H]4C[C@H](O)CC[C@]4(C)[C@H]3C[C@H](O[C@H]3O[C@H](CO)[C@@H](O)[C@H](O)[C@H]3O)[C@]12C: 7.89%

# input molecule: COC(=O)CC[C@@H](C)[C@H]1CC[C@H]2[C@@H]3[C@H](O[C@H]4O[C@H](CO)[C@@H](O)[C@H](O)[C@H]4O)C[C@@H]4C[C@H](OC(=O)c5ccccc5)CC[C@]4(C)[C@H]3C[C@H](O[C@H]3O[C@H](CO)[C@@H](O)[C@H](O)[C@H]3O)[C@]12C ; wanted: its % Decrease in Fluorescence 15.2%

Could you do the same for C[C@H](CCC(=O)O)[C@H]1CC[C@H]2[C@@H]3[C@H](O[C@@H]4O[C@H](CO)[C@@H](O)[C@H](O)[C@H]4O)C[C@H]4C[C@H](O)CC[C@]4(C)[C@H]3C[C@H](O[C@@H]3O[C@H](CO)[C@@H](O)[C@H](O)[C@H]3O)[C@]12C , please? 35.2%

====

Procedure text: ASSAY II: proton transport across lipid membranes
Format: biochemical
Assay context: 0.00579 mM final concentration
Parameter measured: % Decrease in Fluorescence

• COC(=O)CC[C@@H](C)[C@H]1CC[C@H]2[C@@H]3[C@H](O[C@@H]4O[C@H](CO)[C@@H](O)[C@H](O)[C@H]4O)C[C@H]4C[C@H](OC(=O)c5ccccc5)CC[C@]4(C)[C@H]3C[C@H](O[C@@H]3O[C@H](CO)[C@@H](O)[C@H](O)[C@H]3O)[C@]12C = 27.4%
• C[C@H](CCC(=O)NC(Cc1c[nH]c2ccccc12)C(=O)O)[C@H]1CC[C@H]2[C@@H]3[C@H](O[C@H]4O[C@H](CO)[C@@H](O)[C@H](O)[C@H]4O)C[C@@H]4C[C@H](O)CC[C@]4(C)[C@H]3C[C@H](O[C@H]3O[C@H](CO)[C@@H](O)[C@H](O)[C@H]3O)[C@]12C (stereo partly shown) = 19.4%
• COC(=O)CC[C@@H](C)[C@H]1CC[C@H]2[C@@H]3[C@H](O[C@H]4O[C@H](CO)[C@@H](O)[C@H](O)[C@H]4O)C[C@@H]4C[C@H](OC(=O)c5ccc(OC)cc5)CC[C@]4(C)[C@H]3C[C@H](O[C@H]3O[C@H](CO)[C@@H](O)[C@H](O)[C@H]3O)[C@]12C = 20.6%

# input compound: CCOC(=O)O[C@@H]1CC[C@@]2(C)[C@@H](C1)C[C@@H](O[C@H]1O[C@H](CO)[C@@H](O)[C@H](O)[C@H]1O)[C@@H]1[C@@H]2C[C@H](O[C@H]2O[C@H](CO)[C@@H](O)[C@H](O)[C@H]2O)[C@]2(C)[C@@H]([C@H](C)CCC(=O)OC)CC[C@@H]12 ; wanted: its % Decrease in Fluorescence 4.3%

====

Documented % Decrease in Fluorescence across a set of molecules
Procedure text: ASSAY II: proton transport across lipid membranes
Type: biochemical
Assay context: 0.0116 mM final concentration
State just the number; it will be interpreted in %.

- COC(=O)CC[C@@H](C)[C@H]1CC[C@H]2[C@@H]3[C@H](O[C@H]4O[C@H](CO)[C@@H](O)[C@H](O)[C@H]4O)C[C@@H]4C[C@H](O)CC[C@]4(C)[C@H]3C[C@H](O[C@H]3O[C@H](CO)[C@@H](O)[C@H](O)[C@H]3O)[C@]12C: 12.3
- C[C@H](CCC(=O)NC(Cc1c[nH]c2ccccc12)C(=O)O)[C@H]1CC[C@H]2[C@@H]3[C@H](O[C@H]4O[C@H](CO)[C@@H](O)[C@H](O)[C@H]4O)C[C@@H]4C[C@H](O)CC[C@]4(C)[C@H]3C[C@H](O[C@H]3O[C@H](CO)[C@@H](O)[C@H](O)[C@H]3O)[C@]12C (some centres unmarked): 26.1
- COC(=O)CC[C@@H](C)[C@H]1CC[C@H]2[C@@H]3[C@H](O)C[C@@H]4C[C@H](O)CC[C@]4(C)[C@H]3C[C@H](O)[C@]12C [Methyl Cholate, reference compound]: 5.4
- CCOC(=O)O[C@@H]1CC[C@@]2(C)[C@@H](C1)C[C@@H](O[C@H]1O[C@H](CO)[C@@H](O)[C@H](O)[C@H]1O)[C@@H]1[C@@H]2C[C@H](O[C@H]2O[C@H](CO)[C@@H](O)[C@H](O)[C@H]2O)[C@]2(C)[C@@H]([C@H](C)CCC(=O)OC)CC[C@@H]12: 7.6
- COC(=O)CC[C@@H](C)[C@H]1CC[C@H]2[C@@H]3[C@H](O[C@H]4O[C@H](CO)[C@@H](O)[C@H](O)[C@H]4O)C[C@@H]4C[C@H](OC(=O)c5ccccc5)CC[C@]4(C)[C@H]3C[C@H](O[C@H]3O[C@H](CO)[C@@H](O)[C@H](O)[C@H]3O)[C@]12C: 19.8
- C[C@H](CCC(=O)O)[C@H]1CC[C@H]2[C@@H]3[C@H](O)C[C@@H]4C[C@H](O)CC[C@]4(C)[C@H]3CC[C@]12C [Chenodeoxycholic Acid, reference compound]: 8.2
- C[C@H](CCC(=O)O)[C@H]1CC[C@H]2[C@@H]3[C@H](O[C@H]4O[C@H](CO)[C@@H](O)[C@H](O)[C@H]4O)C[C@@H]4C[C@H](O)CC[C@]4(C)[C@H]3C[C@H](O[C@H]3O[C@H](CO)[C@@H](O)[C@H](O)[C@H]3O)[C@]12C: 35.4

# input molecule: COC(=O)CC[C@@H](C)[C@H]1CC[C@H]2[C@@H]3[C@H](O[C@@H]4O[C@H](CO)[C@@H](O)[C@H](O)[C@H]4O)C[C@H]4C[C@H](OC(=O)c5ccccc5)CC[C@]4(C)[C@H]3C[C@H](O[C@@H]3O[C@H](CO)[C@@H](O)[C@H](O)[C@H]3O)[C@]12C ; wanted: its % Decrease in Fluorescence 43.0
